Hey, just so you know, these numbers are from paper PMC9544254.

- tested system: Tryptase
- assay: isolated enzyme kinetic fluorogenic substrate IC50 assay
- test parameters: 5 min pre‐incubation
measured attribute: IC50

[in] Given COCc1nn(Cc2ccc(Cn3ccccc3=O)cc2)cc1C(=O)NCc1nccc(OC)c1F , state its recorded IC50.
[out] > 10 µM

---

- assay: phase 2: plasma concentrations of KVD900 in HAE subjects
- Type: in vivo
- test parameters: both sexes, human, HAE Type 1 and Type 2 subjects, 600 mg oral tablets, arithmetic mean, n = 42
measured attribute: Tmax (h)
Value expressed in h; do not type the unit.

[in] Given COCc1nn(Cc2ccc(Cn3ccccc3=O)cc2)cc1C(=O)NCc1nccc(OC)c1F , state its recorded Tmax.
[out] 1.2
